Cited source for all entries: PubChem BioAssay AID504905

molecular target: 5-hydroxytryptamine receptor 5A (Homo sapiens); assay: HTR5A agonists in cells, counter-screen for OPRM1-OPRD1 heterodimer agonist project, cell-based, luminescence (AID 504905); settings: HTR5A agonist counterscreen, at 9.3 µM, stronger effect = higher value;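 note: 0% = vehicle-treated cells and 100% = reference agonist response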
The other results are listed elsewhere or left out.
The reader will find reported activation values listed item by item below.
Respond numerically; units are % and should not be typed.

MOLECULE	ENDPOINT	OBS VALUE
CN(C)CCCN(C(=O)c1ccc(S(=O)(=O)N2CCCc3ccccc32)cc1)c1nc2ccc(F)cc2s1	activation	7.49
Cc1ccc(O)c(NC(=S)NC(=O)COc2ccc(Br)cc2)c1	activation	0.97
COc1cccc(/C=N/Nc2cc(C)nc(-c3ccccc3O)n2)c1O	activation	0.01

QUERY: I'm curious: which activation was measured for O=C(NC1=CC(=O)c2ccccc2C1=O)c1ccccc1 tested on 5-hydroxytryptamine receptor 5A (Homo sapiens)?
RESULT: 3.59

QUERY: // repeat for CCC(C(=O)OCC(=O)Nc1ccc(C(=O)Nc2ccc(OC)cc2)cc1)c1ccccc1 (stereo not given) and report
RESULT: 5.87

QUERY: // repeat for COc1cc(/C=N/NC(=O)Nc2ccccc2)ccc1OCCOc1ccccc1C and report
RESULT: 10.4

QUERY: // repeat for CN(C)C(CNC(=O)Cc1ccc([N+](=O)[O-])cc1)c1ccccc1 (stereo not given) and report
RESULT: 1.22

QUERY: // repeat for N#CC(C(=O)c1ccc(S(=O)(=O)N2CCCCCC2)cc1)c1nc2ccccc2[nH]1 (stereo not given) and report
RESULT: 5.09

* * *

target: 5-hydroxytryptamine receptor 5A (Homo sapiens) (UniProt P47898); assay: HTR5A agonists in cells, counter-screen for OPRM1-OPRD1 heterodimer agonist project, cell-based, luminescence (AID 504905); conditions: HTR5A agonist counterscreen, at 9.3 µM, stronger effect = higher value;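 note: 0% = vehicle-treated cells and 100% = reference agonist response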
Sequence (P47898 whole entry, looked up): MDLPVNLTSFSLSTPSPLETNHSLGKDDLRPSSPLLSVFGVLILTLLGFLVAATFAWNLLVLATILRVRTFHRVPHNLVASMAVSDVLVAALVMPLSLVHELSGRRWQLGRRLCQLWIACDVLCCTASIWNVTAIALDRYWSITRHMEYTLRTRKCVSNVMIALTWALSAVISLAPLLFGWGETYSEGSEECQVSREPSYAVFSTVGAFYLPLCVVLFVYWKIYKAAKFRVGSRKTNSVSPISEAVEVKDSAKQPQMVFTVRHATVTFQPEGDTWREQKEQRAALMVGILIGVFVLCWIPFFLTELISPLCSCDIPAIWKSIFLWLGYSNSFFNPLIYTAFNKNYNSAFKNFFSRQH
Some of the results follow.
The reader will find reported activation values listed item by item below.
Respond numerically; units are % and should not be typed.

COMPOUND	activation [%]
Cc1ccc(S(=O)(=O)N(CC(=O)Nc2cccnc2)c2ccc(Br)cc2)cc1	0.5
CN(C)C(CNC(=O)c1ccc(S(=O)(=O)NCc2ccco2)cc1)c1ccccc1 (configuration not stated)	4.56
CN1CCN(c2ccc([N+](=O)[O-])c(Sc3nc4ccccc4[nH]3)c2)CC1	-0.05
CCNS(=O)(=O)c1ccc(NC(=O)Nc2cccc(OC)c2)cc1	3.27
Clc1ccc(COn2c(-c3ccc(Cl)cc3Cl)nc3ncccc32)cc1	0.23

QUERY: Which activation value is on record for Cc1ccc(Nc2ccccc2N)cc1 ?
RESULT: 0.79

QUERY: // repeat for O=C(NCc1cn2ccsc2n1)Nc1ccc(Cl)cc1 and report
RESULT: -5.53
